experiment: Solubility in PBS solution (pH 7.4) at room temperature; type: physicochemical; conditions: PBS solution (pH 7.4), aqueous buffer, kinetic from dmso stock; PBS pH 7.4, room temperature, 24 hours shaking, 1% DMSO, average of two measurements; read-out: Solubility in PBS pH7.4

{"Molecule": "[2H]C([2H])([2H])Oc1cc(F)ccc1Oc1cc(C(F)(F)F)c(Cl)cc1C(=O)Nc1cnn(COC(=O)/C=C/C(=O)O)c(=O)c1 [Example 13]", "solubility at 24 h (µM)": 63.6}
{"Molecule": "Cc1cc(F)ccc1Oc1cc(C(F)(F)F)c(Cl)cc1C(=O)Nc1cnn(COC(=O)CCC(=O)O)c(=O)c1 [Example 2]", "solubility at 24 h (µM)": 57.4}
{"Molecule": "Cc1cc(F)ccc1Oc1cc(C(F)(F)F)c(Cl)cc1C(=O)Nc1cnn(COC(=O)/C=C/C(=O)O)c(=O)c1 [Example 9]", "solubility at 24 h (µM)": 63.5}
{"Molecule": "[2H]C([2H])([2H])Oc1cc(F)ccc1Oc1cc(C(F)(F)F)c(Cl)cc1C(=O)Nc1cnn(COC(=O)CCC(=O)O)c(=O)c1 [Example 7]", "solubility at 24 h (µM)": 34.5}
